Values compiled from ChEMBL document CHEMBL1828609.

assay: Efflux ratio of permeability from basolateral to apical over apical to basolateral side of MDCK cells expressing human MDR1 after 2 hrs; type: ADME, cell-based, Canis lupus familiaris; conditions: dog
property label: efflux ratio at 2 h

CN1CC(c2c[nH]c3cc(-n4ccc(OCc5ccccc5)cc4=O)ccc23)C1
144
O=c1cc(OCc2ccccc2)ccn1-c1ccc2c(c1)CCN2C1CN(CCF)C1
2.2

(P) CN1CC(N2CCc3cc(-n4ccc(OCc5ccccc5)cc4=O)ccc32)C1
(Q) CN1CC(c2c[nH]c3cc(-n4ccc(OCc5ccccc5F)cc4=O)ccc23)C1
Prompt: Would you mind telling me which has the lower recorded efflux ratio at 2 h between P and Q ? Write the label of whichever entry you select.
Response: P

* * *

test: Ratio of drug level in brain to plasma in P-gp transporter knockout FVB mouse after 3 hrs; assay type: ADME, cell-free; settings: read-out: BPR
property label: Kp at 3 h
No unit in the answer, please; the number alone is enough.

Prompt: Please report Kp at 3 h for the following molecule: CN1CC(c2c[nH]c3cc(-n4ccc(OCc5ccccc5)cc4=O)ccc23)C1
Response: 0.82

* * *

assay: Drug uptake in wild type FVB mouse brain at 15 mg/kg, iv after 8 hrs; format: ADME, organism-based; design: dose 15 mg/kg, route intravenous; details: read-out: Drug uptake
property label: concentration at 8 h (ng/g)
# value in ng/g; strip the unit string

Prompt: Please report concentration at 8 h for the following compound: CN1CC(c2c[nH]c3cc(-n4ccc(OCc5ccccc5)cc4=O)ccc23)C1
Response: 144

* * *

test: Ratio of drug level in brain to plasma in wild type FVB mouse after 1 hr; type: ADME, cell-free; conditions: read-out: BPR
property label: Kp at 1 h
No unit in the answer, please; the number alone is enough.

Prompt: Please report Kp at 1 h for the following molecule: CN1CC(c2c[nH]c3cc(-n4ccc(OCc5ccccc5)cc4=O)ccc23)C1
Response: 0.06

* * *

assay: Apparent permeability from basolateral to apical side in MDCK cells expressing human MDR1 after 2 hrs; type: ADME, cell-based, Canis lupus familiaris; details: dog
property label: Papp B→A at 2 h (×10⁻⁶ cm/s)

Examples with answers:
COCCN1CC(c2c[nH]c3cc(-n4ccc(OCc5ccccc5)cc4=O)ccc23)C1
34.1
O=c1cc(OCc2ccccc2)ccn1-c1ccc2c(C3CN(CCF)C3)c[nH]c2c1
58.9
CN1CC(c2c[nH]c3cc(-n4ccc(-c5ccc(Cl)cc5)cc4=O)ccc23)C1
53.7
O=c1cc(-c2ccc(Cl)cc2)ccn1-c1ccc2c(c1)CCN2C1CN(CCF)C1
30.1
CN1CC(N2CCc3cc(-n4ccc(OCc5ccccc5)cc4=O)ccc32)C1
36.5
O=c1cc(OCc2ccccc2)ccn1-c1ccc2c(c1)CCN2C1CN(CCF)C1
38.2
CN1CC(c2c[nH]c3cc(-n4ccc(OCc5ccccc5F)cc4=O)ccc23)C1
25.3

(A) Cn1cc(C2CN(CCF)C2)c2ccc(-n3ccc(-c4ccc(F)cc4)cc3=O)cc21
(B) CN1CC(c2c[nH]c3cc(-n4ccc(OCc5ccccc5)cc4=O)ccc23)C1
Prompt: Which of the two items, A and B , has the greater recorded Papp B→A at 2 h? Write the label of whichever entry you select.
Response: A
(A: 45.4 ×10⁻⁶ cm/s, B: 26.3 ×10⁻⁶ cm/s)

* * *

experiment: Plasma concentration in wild type FVB mouse at 15 mg/kg, iv after 3 hrs; format: ADME, organism-based; design: dose 15 mg/kg, route intravenous
property label: concentration at 3 h (ng/mL)
# value in ng/mL; strip the unit string

Prompt: Please report concentration at 3 h for the following compound: CN1CC(c2c[nH]c3cc(-n4ccc(OCc5ccccc5)cc4=O)ccc23)C1
Response: 1450

* * *

assay: Plasma concentration in P-gp transporter knockout FVB mouse at 15 mg/kg, iv after 8 hrs; format: ADME, organism-based; design: dose 15 mg/kg, route intravenous
property label: concentration at 8 h (ng/mL)
# value in ng/mL; strip the unit string

Prompt: Please report concentration at 8 h for the following compound: CN1CC(c2c[nH]c3cc(-n4ccc(OCc5ccccc5)cc4=O)ccc23)C1
Response: 607

* * *

experiment: Ratio of drug level in brain to plasma in wild type FVB mouse after 6 hrs; assay type: ADME, cell-free; conditions: read-out: BPR
property label: Kp at 6 h
No unit in the answer, please; the number alone is enough.

Prompt: Please report Kp at 6 h for the following molecule: CN1CC(c2c[nH]c3cc(-n4ccc(OCc5ccccc5)cc4=O)ccc23)C1
Response: 0.24

* * *

test: Ratio of drug level in brain to plasma in wild type FVB mouse after 8 hrs; type: ADME, cell-free; details: read-out: BPR
property label: Kp at 8 h
No unit in the answer, please; the number alone is enough.

Prompt: Please report Kp at 8 h for the following molecule: CN1CC(c2c[nH]c3cc(-n4ccc(OCc5ccccc5)cc4=O)ccc23)C1
Response: 0.28

* * *

assay: Ratio of drug level in brain to plasma in P-gp transporter knockout FVB mouse after 1 hr; assay type: ADME, cell-free; details: read-out: BPR
property label: Kp at 1 h
No unit in the answer, please; the number alone is enough.

Prompt: Please report Kp at 1 h for the following compound: CN1CC(c2c[nH]c3cc(-n4ccc(OCc5ccccc5)cc4=O)ccc23)C1
Response: 0.28

* * *

experiment: Drug uptake in rat brain at 10 mg/kg, sc after 4 hrs; type: ADME, organism-based; parameters: dose 10 mg/kg, route subcutaneous; conditions: read-out: Drug uptake
property label: concentration at 4 h (ng/g)
# value in ng/g; strip the unit string

Prompt: Please report concentration at 4 h for the following compound: CN1CC(c2cn(C)c3cc(-n4ccc(OCc5ccccc5)cc4=O)ccc23)C1
Response: 110

* * *

test: Apparent permeability from apical to basolateral side in MDCK cells expressing human MDR1 after 2 hrs; type: ADME, cell-based, Canis lupus familiaris; details: dog
property label: Papp A→B at 2 h (×10⁻⁶ cm/s)

(a) CN1CC(c2c[nH]c3cc(-n4ccc(OCc5ccccc5)cc4=O)ccc23)C1
(b) COCCN1CC(c2c[nH]c3cc(-n4ccc(OCc5ccccc5)cc4=O)ccc23)C1
Prompt: Would you mind telling me which has the lower recorded Papp A→B at 2 h between a and b ? Write the label of whichever entry you select.
Response: a

* * *

assay: Plasma concentration in P-gp transporter knockout FVB mouse at 15 mg/kg, iv after 1 hr; type: ADME, organism-based; design: dose 15 mg/kg, route intravenous
property label: concentration at 1 h (ng/mL)
# value in ng/mL; strip the unit string

Prompt: Please report concentration at 1 h for the following compound: CN1CC(c2c[nH]c3cc(-n4ccc(OCc5ccccc5)cc4=O)ccc23)C1
Response: 3130

* * *

experiment: Drug uptake in wild type FVB mouse brain at 15 mg/kg, iv after 3 hrs; assay type: ADME, organism-based; set-up: dose 15 mg/kg, route intravenous; details: read-out: Drug uptake
property label: concentration at 3 h (ng/g)
# value in ng/g; strip the unit string

Prompt: Please report concentration at 3 h for the following molecule: CN1CC(c2c[nH]c3cc(-n4ccc(OCc5ccccc5)cc4=O)ccc23)C1
Response: 172

* * *

experiment: Ratio of drug level in brain to plasma in wild type FVB mouse after 3 hrs; assay type: ADME, cell-free; settings: read-out: BPR
property label: Kp at 3 h
No unit in the answer, please; the number alone is enough.

Prompt: Please report Kp at 3 h for the following compound: CN1CC(c2c[nH]c3cc(-n4ccc(OCc5ccccc5)cc4=O)ccc23)C1
Response: 0.12

* * *

assay: Apparent permeability of the compound at pH 3 to 7.4 by PAMPA method; format: ADME
property label: Papp (×10⁻⁶ cm/s)
# value in ×10⁻⁶ cm/s; strip the unit string

Prompt: Please report Papp for the following compound: CN1CC(c2c[nH]c3cc(-n4ccc(OCc5ccccc5)cc4=O)ccc23)C1
Response: 16.4

* * *

assay: Plasma concentration in rat at 10 mg/kg, sc after 4 hrs; assay type: ADME, organism-based; design: dose 10 mg/kg, route subcutaneous
property label: concentration at 4 h (ng/mL)
# value in ng/mL; strip the unit string

Prompt: Please report concentration at 4 h for the following compound: CN1CC(c2cn(C)c3cc(-n4ccc(OCc5ccccc5)cc4=O)ccc23)C1
Response: 4000

* * *

assay: Plasma concentration in wild type FVB mouse at 15 mg/kg, iv after 8 hrs; assay type: ADME, organism-based; parameters: dose 15 mg/kg, route intravenous
property label: concentration at 8 h (ng/mL)
# value in ng/mL; strip the unit string

Prompt: Please report concentration at 8 h for the following molecule: CN1CC(c2c[nH]c3cc(-n4ccc(OCc5ccccc5)cc4=O)ccc23)C1
Response: 538

* * *

experiment: Plasma concentration in wild type FVB mouse at 15 mg/kg, iv after 6 hrs; format: ADME, organism-based; parameters: dose 15 mg/kg, route intravenous
property label: concentration at 6 h (ng/mL)
# value in ng/mL; strip the unit string

Prompt: Please report concentration at 6 h for the following molecule: CN1CC(c2c[nH]c3cc(-n4ccc(OCc5ccccc5)cc4=O)ccc23)C1
Response: 623
